Target system: Prostaglandin G/H synthase 1 (Ovis aries)
Procedure text: Inhibition of ovine COX1 at 100 uM after 5 mins by microplate reader assay
Quantity kind: inhibition
Number first, unit second: that is the form wanted.

What inhibition value was documented for this molecule, Cc1ccc(C(=O)Nc2cc(Cl)cc(Cl)c2)cn1 ?
20%

I'm hoping you can list inhibition for every molecule here, please.
1. O=C(Nc1ccc(Cl)cc1)c1cncc(Br)c1
2. COc1ccc(NC(=O)c2cccnc2O)cc1
3. Cc1ccc(C(=O)Nc2ccc(Br)cc2)cn1
4. O=C(Nc1ccc(F)cc1)c1cnc(O)c(Cl)c1
5. O=C(Nc1ccc(F)cc1)c1cnc(Cl)c(Cl)c1

["13%", "42%", "35%", "90%", "45%"]

Quick batch: inhibition for everything below.
1. O=C(Nc1ccc(Cl)cc1)c1ccc(Cl)nc1
2. COc1ccc(NC(=O)c2cncc(Br)c2)cc1
3. Cc1ccc(NC(=O)c2cnc(O)c(Cl)c2)cc1
4. O=C(Nc1ccc(F)cc1)c1ccc(O)nc1
5. COc1ccc(NC(=O)c2ccc(Cl)nc2)cc1
6. O=C(Nc1ccc(Br)cc1)c1ccc(Cl)nc1
7. O=C(Nc1ccc(Cl)cc1Cl)c1cnc(Cl)c(Cl)c1
8. O=C(Nc1cc(Cl)cc(Cl)c1)c1cnc(O)c(Cl)c1

42%
0%
50%
78%
38%
18%
40%
63%

---

For each record, write down the corresponding inhibition.
Target system: Prostaglandin G/H synthase 1 (Ovis aries)
Sequence (whole entry): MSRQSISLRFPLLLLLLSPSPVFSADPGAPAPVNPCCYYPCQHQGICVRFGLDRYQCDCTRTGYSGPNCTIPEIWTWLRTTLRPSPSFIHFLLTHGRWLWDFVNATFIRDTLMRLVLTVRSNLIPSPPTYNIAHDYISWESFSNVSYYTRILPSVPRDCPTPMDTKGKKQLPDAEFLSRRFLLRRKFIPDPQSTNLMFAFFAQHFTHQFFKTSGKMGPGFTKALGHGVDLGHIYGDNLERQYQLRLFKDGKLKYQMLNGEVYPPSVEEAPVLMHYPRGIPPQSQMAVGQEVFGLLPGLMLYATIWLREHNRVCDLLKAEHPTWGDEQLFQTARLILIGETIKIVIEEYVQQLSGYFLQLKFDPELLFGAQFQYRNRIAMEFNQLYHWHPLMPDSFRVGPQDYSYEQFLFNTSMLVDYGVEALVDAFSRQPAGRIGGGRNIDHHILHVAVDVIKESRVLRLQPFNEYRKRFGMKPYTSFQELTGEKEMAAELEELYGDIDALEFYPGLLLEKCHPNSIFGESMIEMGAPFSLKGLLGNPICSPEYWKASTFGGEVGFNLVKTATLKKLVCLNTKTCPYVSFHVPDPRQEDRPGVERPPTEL
Procedure text: Inhibition of ovine COX1 at 100 uM after 5 mins by microplate reader assay
One number for each entry, in %.

The cases that follow already have their inhibition on record.
GET /values?readout=inhibition&item= O=C(Nc1ccc(Br)cc1)c1cnc(O)c(Cl)c1
58

Next: O=C(Nc1cc(Cl)cc(Cl)c1)c1cnc(Cl)c(Cl)c1
34

Now the compound Cc1ccc(NC(=O)c2ccc(Cl)nc2)cc1
25

How about this compound: O=C(Nc1ccc(Br)cc1)c1cncc(Br)c1
5

Another compound to look at: Cc1ccc(NC(=O)c2ccc(C)nc2)cc1
10

Follow-up entry: COc1ccc(NC(=O)c2ccc(C)nc2)cc1
26

Each of the following entries comes with a recorded value; kindly state inhibition for each.
1. O=C(Nc1ccc(Cl)cc1Cl)c1cncc(Br)c1
2. O=C(Nc1cccc(Cl)c1)c1cccnc1O
3. O=C(Nc1ccc(Cl)cc1)c1cnc(O)c(Cl)c1

1. 19
2. 35
3. 84

Dear reader, for each entry below, please note its inhibition.
1. Cc1ccc(NC(=O)c2cnc(Cl)c(Cl)c2)cc1
2. COc1ccc(NC(=O)c2ccc(O)nc2)cc1
3. O=C(Nc1ccc(Br)cc1)c1cccnc1O
4. COc1ccc(NC(=O)c2cnc(O)c(Cl)c2)cc1

1: 37; 2: 53; 3: 47; 4: 64

---

Target system: Prostaglandin G/H synthase 1 (Ovis aries)
Procedure text: Inhibition of ovine COX1 at 100 uM after 5 mins by microplate reader assay
Quantity kind: inhibition (%)
One number for each entry, in %.

Please look at the items below and tell me inhibition for each one, in order.
1. Cc1ccc(NC(=O)c2cccnc2O)cc1
2. O=C(Nc1ccc(Br)cc1)c1ccc(O)nc1
3. Cc1ccc(C(=O)Nc2ccc(Cl)cc2)cn1
4. Cc1ccc(NC(=O)c2ccc(O)nc2)cc1
5. O=C(Nc1ccc(F)cc1)c1ccc(Cl)nc1

[28, 64, 45, 40, 41]

Hey, quick one: what's inhibition for each of these?
1. O=C(Nc1ccc(Cl)cc1)c1ccc(O)nc1
2. O=C(Nc1ccc(Cl)cc1)c1cccnc1O

75
60

---

Please go through the items and note down their IC50.
Target system: Prostaglandin G/H synthase 1 (Ovis aries)
Sequence (P05979 whole entry): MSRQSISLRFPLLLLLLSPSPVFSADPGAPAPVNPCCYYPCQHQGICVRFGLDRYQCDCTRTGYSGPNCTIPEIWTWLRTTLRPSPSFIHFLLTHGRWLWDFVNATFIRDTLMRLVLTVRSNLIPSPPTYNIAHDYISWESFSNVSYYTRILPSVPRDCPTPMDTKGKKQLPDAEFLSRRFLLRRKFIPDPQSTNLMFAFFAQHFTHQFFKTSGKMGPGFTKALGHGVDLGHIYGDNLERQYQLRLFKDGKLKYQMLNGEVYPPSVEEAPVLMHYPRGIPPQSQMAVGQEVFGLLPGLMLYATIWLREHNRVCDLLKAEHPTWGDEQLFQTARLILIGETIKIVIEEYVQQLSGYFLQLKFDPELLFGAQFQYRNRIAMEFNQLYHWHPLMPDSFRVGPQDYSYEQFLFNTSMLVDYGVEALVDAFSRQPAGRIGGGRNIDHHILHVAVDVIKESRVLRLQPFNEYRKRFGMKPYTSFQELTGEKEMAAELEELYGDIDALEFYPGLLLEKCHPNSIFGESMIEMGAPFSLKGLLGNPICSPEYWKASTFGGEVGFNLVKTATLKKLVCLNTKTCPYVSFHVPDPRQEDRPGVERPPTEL
One number for each entry, in µM.

Need IC50 of Cc1ccc(NC(=O)c2c[nH]c(=O)c(Cl)c2)cc1 , thanks.
95

Subsequent entry: O=C(Nc1ccc(Cl)cc1)c1c[nH]c(=O)c(Cl)c1
2.7

Do the same for O=C(Nc1ccc(Br)cc1)c1ccc(=O)[nH]c1 please
30

From here, focus on the item given below.
Recorded IC50 for COc1ccc(NC(=O)c2ccc(=O)[nH]c2)cc1 , please?
86

---

Would you kindly list inhibition for each of these compounds?
Target system: Prostaglandin G/H synthase 1 (Ovis aries) (UniProt P05979)
Procedure text: Inhibition of ovine COX1 at 100 uM after 5 mins by microplate reader assay
Answers are plain numbers, in %.

The cases that follow already have their inhibition on record.
Lab request: please report inhibition under test system Prostaglandin G/H synthase 1 (Ovis aries) (UniProt P05979) for O=C(Nc1ccc(Cl)cc1Cl)c1cnc(O)c(Cl)c1
72

Do the same for Cc1ccc(C(=O)Nc2ccc(Cl)cc2Cl)cn1 please
38

Let us now turn to O=C(Nc1ccc(Br)cc1)c1cnc(Cl)c(Cl)c1
33

Moving on to the next compound: O=C(Nc1ccc(F)cc1)c1cccnc1O
64

What about O=C(Nc1ccc(Cl)cc1)c1cnc(Cl)c(Cl)c1 ?
42

Turning to the following compound.
Field: inhibition (Prostaglandin G/H synthase 1 (Ovis aries) (UniProt P05979)). Entry: Cc1ccc(C(=O)Nc2ccc(F)cc2)cn1
59

# credit: ChEMBL document CHEMBL1641599
